Hello, the source for this data is patent US6077519A, in case you need it.

Would you mind telling me the reported Normal PBL Response (responders/donors) of each entry?
# Test system: Mel 624
# MEASUREMENT_NOTES: induction of anti-melanoma CTL from normal donor PBMC by peptide-pulsed autologous DC, lysis of Mel 624
# Format: cell-based, human
# REPORTED_CONDITIONS: lysis of Mel 624 >20% at E:T 10:1, >80% inhibited by BB7.2
Ends that are not written are not given here.

Asked: Give me measured Normal PBL Response (responders/donors), please, for this substance: MLLAVLYCL [Tyrosinase 1-9]
Given back: 1/12

Asked: Return value of Normal PBL Response (responders/donors) for input ILTVILGVL [p939] , no commentary.
Given back: 9/12

Asked: Answer with the recorded Normal PBL Response (responders/donors) for the substance listed here: LLDGTATLRL [gp100 457-466]
Given back: 0/12

Asked: Return reported Normal PBL Response (responders/donors). Input substance: FLWGPRALV [MAGE-3]
Given back: 0/4

Asked: Consider the substance Tyr-Leu-Glu-Pro-Gly-Pro-Val-Thr-Ala [gp100 280-288] and give its recorded Normal PBL Response (responders/donors).
Given back: 9/12

Asked: Write down Normal PBL Response (responders/donors) measured for item YMDGTMSQV [Tyrosinase 368-376]
Given back: 7/12
